TARGET_ENTITY: Cap-dependant Endonuclease (CEN) (RNP fraction, PB1-PB2-PA complex) (Influenza A virus (strain A/Wilson-Smith/1933 H1N1) (Influenza A virus (strain A/WS/1933 H1N1)), UniProt P15659)
Assay type: biochemical, influenza A/WSN/33 virus
Here, each record is paired with measured IC50 data.
ASSAY_METRIC: IC50 (nM)

>>> df
                                    molecule  assay_metric  readout_value
 0  C[C@@H](N1CN([C@@H]2c3ccccc3SCc3c2ccc(F)c3F)n2cc(Cl)c(=O)c(O)c2C1=O)C(F)(F)F [compound 716]          IC50           5.54
 1  C[C@@H](N1CN([C@H]2c3cccc(F)c3SCc3cccc(Cl)c32)n2ccc(=O)c(O)c2C1=O)C(F)(F)F [Reference example 622]          IC50             89
 2  C[C@@H](N1CN([C@@H]2c3ccccc3SCc3cccc(Cl)c32)n2cc(CO)c(=O)c(O)c2C1=O)C(F)(F)F [compound 666]          IC50           3.36
 3  CC(O)c1cn2c(c(O)c1=O)C(=O)N([C@H](C)C(F)(F)F)CN2[C@@H]1c2ccccc2SCc2cccc(Cl)c21 (stereo partly drawn) [compound 710]          IC50           20.6
 4  C[C@@H](N1CN([C@H]2c3cc(F)c(F)cc3CSc3ccccc32)n2ccc(=O)c(O)c2C1=O)C(F)(F)F [compound 668]          IC50           12.6
 5  C[C@@H](N1CN([C@@H]2c3cccc(F)c3CSc3c(Cl)cccc32)n2ccc(=O)c(O)c2C1=O)C(F)(F)F [Reference example 597]          IC50            339
 6  COCCCC1N(CC(F)(F)F)C(=O)c2c(O)c(=O)ccn2N1C1c2ccccc2CCc2ccccc21 (stereo not drawn) [Reference example 642]          IC50            256
 7  COC[C@H](C)N1C(=O)c2c(O)c(=O)ccn2N(C2c3ccccc3CCc3ccccc32)C1CCN(C)C (stereo partly drawn) [Reference example 644]          IC50            238
 8  CC(C)N1C(=O)c2c(OCc3ccccc3)c(=O)ccn2N(C2c3ccccc3CCc3ccccc32)C1c1ccc(Cl)cc1 (stereo not drawn) [Reference example 527]          IC50            127
 9  C[C@@H](N1CN([C@H]2c3cccc(F)c3CSc3c(Cl)cccc32)n2ccc(=O)c(O)c2C1=O)C(F)(F)F [Reference example 594]          IC50             11
10  COCCC(=O)Oc1c2n(ccc1=O)N([C@@H]1c3ccccc3SCc3c(Cl)cccc31)CN([C@H](C)C(F)(F)F)C2=O [Example 108]          IC50             37
11  Cc1cccc2c1CSc1c(C)cccc1[C@H]2N1CN([C@H](C)C(F)(F)F)C(=O)c2c(O)c(=O)ccn21 [Reference example 613]          IC50            173
12  C[C@@H](N1CN([C@@H]2c3cccc(F)c3SCc3cccc(Cl)c32)n2ccc(=O)c(O)c2C1=O)C(F)(F)F [Reference example 621]          IC50              6
13  C[C@@H](N1CN([C@@H]2c3ccccc3SCc3c2ccc(F)c3F)n2ccc(=O)c(O)c2C1=O)C(F)(F)F [compound 711]          IC50           5.57
14  C[C@@H](N1CN([C@@H]2c3ccccc3SCc3c(Cl)cccc32)n2ccc(=O)c(OCOC(=O)NCCN)c2C1=O)C(F)(F)F [Example 178]          IC50             61

====

TARGET_ENTITY: Cap-dependant Endonuclease (CEN) (RNP fraction, PB1-PB2-PA complex) (Influenza A virus (strain A/Wilson-Smith/1933 H1N1) (Influenza A virus (strain A/WS/1933 H1N1)))
Assay type: biochemical, influenza A/WSN/33 virus
APPLIED_CONDITIONS: parent compounds (Reference examples); room temperature, 60 minutes
ASSAY_METRIC: IC50 (nM)

>>> print(df.to_string())
                                   compound  assay_metric  readout_value
0  Cc1cccc2c1SCc1c(F)cccc1[C@@H]2N1CN([C@H](C)C(F)(F)F)C(=O)c2c(O)c(=O)ccn21 [Reference example 623]          IC50             21
1  COC(=O)c1cn2c(c(O)c1=O)C(=O)N1CCCCN1C2C(c1ccccc1)c1ccccc1 (stereo not shown) [Reference example 506]          IC50            247
2  C[C@@H](N1CN(C2c3ccc(F)cc3CCc3cc(F)ccc32)n2ccc(=O)c(O)c2C1=O)C(F)(F)F [Reference example 640]          IC50             57
3  Cc1cccc2c1[C@@H](N1CN([C@H](C)C(F)(F)F)C(=O)c3c(O)c(=O)ccn31)c1ccccc1SC2 [Reference example 662]          IC50            316
